# PROTOCOL_DESCRIPTION: JC-1 mitochondrial signal, unstimulated myeloma cells – cell-based, JC-1 fluorescence, RPMI8226, 24 h, 100 nL compound, profiling panel (AID 1169); note: test concentration not given here
# COND: JC-1 mitochondrial potential fluorescence, higher = more signal
In this section, each of the molecules is paired with its reported z-score.

O=C1C2C=CC(C(O)c3ccc([N+](=O)[O-])cc3)N(Nc3ccccc3F)C2C(=O)N1c1ccccc1 (centres undefined) :: -0.268

Task: Could you tell me which z-score is on file for C=CCC(OC(C)=O)[C@@H]1[C@@H](N(Cc2cccc3ccccc23)C(=O)Cc2ccc(OC)cc2)c2cc(OCCCO)ccc2N1C(=O)c1ccc2ccccc2c1 (some centres undefined) ?
Output: 0.066

Task: Entry to check: `C[C@]1(C(=O)O)c2ccccc2C(=O)N(Cc2cc(F)cc(C(F)(F)F)c2)[C@H]1c1ccc(CO)cc1`
Output: 0.383

Task: Repeat with OCCCC1=CC(c2ccc(CN3CCCC3)cc2)N(Cc2cccc(OC(F)(F)F)c2)CC1 (centres undefined)
Output: -0.739

* * *

# PROTOCOL_DESCRIPTION: plasmodial surface anion channel blockers, osmotic lysis – cell-based, P. falciparum Indochina, OD700, 2 h, primary screen (AID 1155);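 note: lysis reports solute entry through the parasite surface anion channel PSAC; channel blockers reduce lysis of infected cells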
# COND: P. falciparum Indochina infected erythrocytes, higher = more signal, called active from +8 up or from −8 down
Decide using z-score: a value greater than or equal to 0.8 is yes, a smaller one is no.

// known answers, use as guide
O=C(NCCN1CCOCC1)[C@@H]1c2ccccc2C(=O)N(Cc2ccc(OC(F)(F)F)cc2)[C@H]1c1ccc(CO)cc1 :: no
CCCNC(=O)[C@@]1(c2ccc([N+](=O)[O-])cc2)CC(=O)N(C(C)C)[C@@H]1c1ccc(CO)cc1 :: no
COc1ccc(C(=O)Nc2cccc(CN3C(=O)[C@@]4(O[C@@H](CC(=O)N5CCC[C@H]5CO)[C@H]([Si](C)(C)c5ccc(OC)cc5)[C@H]4C)c4ccccc43)c2)cc1 :: yes
COc1ccc(C(O)C2C=CC3C(=O)N(C)C(=O)C3N2N(c2ccccc2)c2ccccc2)cc1 (stereo not drawn) :: yes

Task: Can CCCCC(O)C1C=CC2C(=O)N(c3ccccc3)C(=O)C2N1Nc1ccc(C#N)cc1 (stereo not drawn) be said to have z-score at or above 0.8?
Output: yes

Task: Thanks! And `COc1ccc(C(=O)Nc2ccc(CN3C(=O)[C@@]4(O[C@@H](CCn5cc(CCO)nn5)[C@H]([Si](C)(C)c5ccc(OC)cc5)[C@H]4C)c4ccccc43)cc2)cc1` ?
Output: yes

Task: Next molecule up: `CO[C@H]1O[C@H](CO)[C@@H](OC(=O)Nc2ccccc2-c2ccccc2)[C@H](OC(=O)Nc2ccccc2)[C@H]1OC(=O)Nc1ccccc1`
Output: no

Task: Lookup Cc1ccccc1C(O)C1C=CC2C(=O)N(c3ccccc3)C(=O)C2N1Nc1ccccc1 (stereo not drawn)
Output: yes

* * *

# composite z-score listing for each entry below
# STUDY_SYSTEM: Torsin-1A-interacting protein 2 (Homo sapiens)
# PROTOCOL_DESCRIPTION: small molecules binding lysate-expressed LULL1 – cell lysate, human LULL1 lysate, 635/667 nm fluorescence, primary screen (AID 1092);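 note: probe is lysate of COS7 cells overexpressing human LULL1; score merges per-feature 667 nm fluorescence with signal-to-noise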
# COND: small-molecule microarray, hLULL1 lysate binding, 635 nm fluorescence; higher = more signal
A bare number is all that is needed in reply.

COC(=O)[C@@]1(Cc2ccc(OC)cc2)[C@H]2c3cc(C(=O)N4CCCC4)n(Cc4ccc(C(F)(F)F)nc4)c3C[C@H]2CN1C(=O)c1ccccc1 :: 1.05
O=C1C[C@@](C(=O)NC2CC2)(c2ccc([N+](=O)[O-])cc2)[C@@H](c2ccc(CO)cc2)N1C1CCCCC1 :: 3.12
COC(=O)c1cccc([C@H]2OC(=CC(=O)OC(C)C)C[C@@H](c3cccc(C(=O)OC)c3)O2)c1 :: 3.6

# ---- query molecule ----
Task: // lookup composite z-score | system=Torsin-1A-interacting protein 2 (Homo sapiens) | key= O=C1C2C=CC(C(O)c3c(F)cccc3Cl)N(Nc3ccc([N+](=O)[O-])cc3)C2C(=O)N1c1ccccc1 (stereo not given)
Output: 3.54
